Test system: SK-OV-3 ovarian
Respond using exactly one of the listed classes: active, inactive

Would you mind telling me which call this test gave O=C(NCCCNc1cc(-c2cn(-c3ccccc3)nc2-c2cccc(O)c2)ccn1)c1ccccc1 ?
inactive

Hi, do you know how COc1ccccc1NC(=O)n1nc(N)c2ccccc21 came out in this test?
inactive

Per the assay record, what outcome was assigned to Cc1nc2ccc(Nc3nc(NCCN4CCOCC4)nc(Nc4ccc(F)cc4)n3)cc2n1Cc1ccccc1 ?
inactive

Please share the test call associated with NC(=O)c1cc(Br)cc(C2CCCCC2)c1O .
inactive

Test call, this molecule: C#CC1(O)C(COP(=O)(O)OC2CC(n3cc(F)c(=O)[nH]c3=O)OC2CO)OC(n2ccc(N)nc2=O)C1O (configuration not stated)
active
